We begin with Ki values for UniProt:P30542, as collected from the published literature.
recordedMetric: Ki (nM)

Past entries and their recorded results:
{"columns": ["compound", "Ki [nM]"],
 "data": [
  ["Cc1ncnc2ccc(-c3cnc(NC(=O)N4CCC(C#N)CC4)nc3-c3ccc(F)cc3)cc12", 690],
  ["Nc1nc(-c2ccco2)ncc1C(=O)NC1Cc2ccccc2C1", 1270],
  ["O=C(Nc1cc(-c2ccccc2)nc(-c2ccccc2)n1)C1CCCCC1", 15.5],
  ["Cc1cc(-c2c(-c3cccc(C#N)c3)nn3ccc(N4C[C@@H]5NCCO[C@H]5C4)nc23)cc(Cl)n1", 1100],
  ["Cn1cc(-c2c(O)nc(N)nc2-c2ccco2)ccc1=O", 157],
  ["Cc1cc(-c2cnc(NC(=O)N3CCO[C@H](C)C3)nc2-c2ccc(F)cc2)cc(Cl)n1", 1410],
  ["Cn1cc(-c2c(-c3cccc(C#N)c3)nn3ccc(N)nc23)cn1", 89],
  ["Nc1nc(-c2ccco2)ncc1C(=O)NCc1cc(F)cc(F)c1", 1890]
]}

[I] Cc1cc(-c2c(-c3cccc(C#N)c3)nn3ccc(NCC(N)=O)nc23)cc(Cl)n1
[II] Cc1cc(-c2c(-c3cccc(C#N)c3)nn3ccc(C(=O)N[C@H](C)C(C)(C)O)nc23)cc(Cl)n1
[III] Cc1cc(-c2c(-c3cccc(C#N)c3)nn3ccc(C(=O)NCC4CCCNC4=O)nc23)cc(C)n1 (stereo not shown)
[IV] Cc1cc(-c2c(-c3cccc(C#N)c3)nn3ccc(N4CCO[C@@H](C(=O)O)C4)nc23)cc(Cl)n1
[V] Cc1cc(-c2c(-c3cccc(C#N)c3)nn3ccc(NCC(C)(C)C(=O)O)nc23)cc(Cl)n1
Sequence the entries by Ki, beginning with the highest number. Answer by naming the labels in the order asked.
V, II, IV, III, I
(V: 1390 nM, II: 402 nM, IV: 255 nM, III: 150 nM, I: 81 nM)

[I] Cc1cc(-c2c(-c3cccc(C#N)c3)nn3ccc(C(=O)NC[C@@H](O)CO)nc23)cc(Cl)n1
[II] Cc1cc(-c2c(-c3cccc(C#N)c3)nn3ccc(NCC4(O)COC4)nc23)cc(Cl)n1
Which gives the smaller Ki number: I or II ? Kindly give the label for the entry you pick.
II
(II: 62 nM, I: 115 nM)
